Data origin: ChEMBL document CHEMBL4028848

# Test target: CYP1A2 (Homo sapiens)
# Sequence (P05177 whole entry): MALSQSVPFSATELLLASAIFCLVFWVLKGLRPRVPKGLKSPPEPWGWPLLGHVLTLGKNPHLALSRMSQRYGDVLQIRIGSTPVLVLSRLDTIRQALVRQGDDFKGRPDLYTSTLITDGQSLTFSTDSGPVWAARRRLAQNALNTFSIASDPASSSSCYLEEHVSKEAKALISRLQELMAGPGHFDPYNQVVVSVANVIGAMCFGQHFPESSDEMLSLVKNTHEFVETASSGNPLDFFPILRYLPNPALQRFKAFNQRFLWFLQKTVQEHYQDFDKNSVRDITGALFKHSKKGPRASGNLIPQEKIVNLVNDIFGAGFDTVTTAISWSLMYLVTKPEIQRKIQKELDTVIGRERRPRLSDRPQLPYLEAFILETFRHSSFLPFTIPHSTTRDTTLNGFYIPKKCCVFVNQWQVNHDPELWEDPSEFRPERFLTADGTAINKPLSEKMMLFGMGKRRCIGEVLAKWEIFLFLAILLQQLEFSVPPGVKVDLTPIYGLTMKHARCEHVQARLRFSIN
# Experimental details: Inhibition of CYP1A2 (unknown origin) at 10 uM by fluorimetric assay relative to control
# Format: ADME

[
  {
    "Test smiles": "CSc1nc(-c2ccc(F)cc2)c(-c2ccnc(Nc3ccccc3)c2)[nH]1",
    "inhibition at 10 µM, %": 72
  },
  {
    "Test smiles": "CSc1nc(-c2ccc(F)cc2)c(-c2ccnc(NC(C)=O)c2)n1C",
    "inhibition at 10 µM, %": 18
  }
]

* * *

half-life overview
# Experimental details: Half life in human at 10 mg, po administered as single dose
# Format: ADME, organism-based
# Measurement context: in vivo
Measure: half-life (h)

[
  {
    "Compound": "CC(=O)Nc1cc(-c2c(-c3ccc(F)cc3)nc([S+](C)[O-])n2C)ccn1 (configuration not stated)",
    "Units text": "h",
    "Reading": 2.7
  },
  {
    "Compound": "Cn1c([S+](C)[O-])nc(-c2ccc(F)cc2)c1-c1ccnc(N)c1 (configuration not stated)",
    "Units text": "h",
    "Reading": 9.5
  }
]

* * *

Tmax overview
# Experimental details: Tmax in fasting human at 10 mg, po administered as single dose
# Format: ADME, organism-based
# Measurement context: in vivo

[
  {
    "Molecule": "Cn1c([S+](C)[O-])nc(-c2ccc(F)cc2)c1-c1ccnc(N)c1 (configuration not stated)",
    "Tmax, h": 6
  },
  {
    "Molecule": "CC(=O)Nc1cc(-c2c(-c3ccc(F)cc3)nc([S+](C)[O-])n2C)ccn1 (configuration not stated)",
    "Tmax, h": 3.3
  }
]

* * *

# Experimental details: AUC (0 to infinity) in human at 20 mg, po administered as single dose
# Type: ADME, organism-based
# Design: dose 20 mg, time infinity, route oral
# Measurement context: in vivo
AUC(0-inf) overview

[
  {
    "Compound": "Cn1c([S+](C)[O-])nc(-c2ccc(F)cc2)c1-c1ccnc(N)c1 (configuration not stated)",
    "Units text": "µM·h",
    "AUC(0-inf)": 7.17
  },
  {
    "Compound": "CC(=O)Nc1cc(-c2c(-c3ccc(F)cc3)nc([S+](C)[O-])n2C)ccn1 (configuration not stated)",
    "Units text": "µM·h",
    "AUC(0-inf)": 2.24
  }
]
